Test system: MCF10A
Assay: 5+ nucleoli phenotype percent effect (relative to siNT 0% and siKIF11 100%); higher = more cells with five or more nucleoli
Settings: 20 nM; 72 h
Parameter: 5+ nucleoli phenotype percent effect. Scope: all listed entries.
REPORTED_ENDPOINT: 5+ nucleoli phenotype percent effect (%)

INSERT INTO results (macromolecule_sequence, experimental_target, val) VALUES
  ('UCCCAGGGUCUGGUCAGAGUUG [hsa-miR-6764-5p]', 'MCF10A', -18.4),
  ('CUGGGAGAAGAGUGGUGAAGA [hsa-miR-6788-5p]', 'MCF10A', -4.55),
  ('UAAUCUCAGCUGGCAACUGUGA [hsa-miR-216a-5p]', 'MCF10A', -8.01),
  ('AGGAUGAGCAAAGAAAGUAGAUU [hsa-miR-1255a]', 'MCF10A', 55.6),
  ('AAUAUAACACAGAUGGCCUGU [hsa-miR-410]', 'MCF10A', 27.3),
  ('UUGUUCUUUGGUCUUUCAGCCA [hsa-miR-4677-5p]', 'MCF10A', -26.7),
  ('UCCCCCAGGUGUGAUUCUGAUUU [hsa-miR-361-3p]', 'MCF10A', 21.5),
  ('ACCGUGCAAAGGUAGCAUA [hsa-miR-1973]', 'MCF10A', -30.8),
  ('CUCCUCCACAGCCCCUGCUCAU [hsa-miR-6792-3p]', 'MCF10A', -21.5),
  ('UGUGACUUCUCCCCUGCCACAG [hsa-miR-6820-3p]', 'MCF10A', -7.76),
  ('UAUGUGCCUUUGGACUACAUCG [hsa-miR-455-5p]', 'MCF10A', -19.3);

====

System: MCF10A
Assay: percent viability (nuclei count relative to siNT); higher = more viable cells
Details: 20 nM; 72 h
So basically, if percent viability comes in under 40% it's Condition met, and if it's 40% or more it's Condition not met.

INSERT INTO assay_data (macromolecule_sequence, group_label) VALUES
  ('CAGCCCGGAUCCCAGCCCACUU [hsa-miR-3940-3p]', 'Condition met'),
  ('AAAAACCACAAUUACUUUUGCACCA [hsa-miR-548aa]', 'Condition met'),
  ('CCGGGGCAGAUUGGUGUAGGGUG [hsa-miR-5090]', 'Condition not met'),
  ('ACUGGAUUUGGAGCCAGAA [hsa-miR-378j]', 'Condition not met'),
  ('GGGACUAGGAUGCAGACCUCC [hsa-miR-6503-3p]', 'Condition not met'),
  ('AAAGACCCAUUGAGGAGAAGGU [hsa-miR-3667-5p]', 'Condition not met'),
  ('UGGGGGCUGGAUGGGGUAGAGU [hsa-miR-6846-5p]', 'Condition met'),
  ('UCGACCGGACCUCGACCGGCU [hsa-miR-1307-5p]', 'Condition not met'),
  ('CAAAAACUGCAGUUACUUUUGU [hsa-miR-548am-3p]', 'Condition not met'),
  ('AUGGCAUCGUCCCCUGGUGGCU [hsa-miR-4642]', 'Condition met'),
  ('AUAUGCCUGGCUAGCUCCUC [hsa-miR-4633-5p]', 'Condition met'),
  ('AGGGACCUGAGUGUCUAAG [hsa-miR-3649]', 'Condition not met'),
  ('CUUAGAUUAGAGGAUAUUGUU [hsa-miR-8061]', 'Condition not met'),
  ('UGGGAAUGGGGGUAAGGGCC [hsa-miR-6716-5p]', 'Condition met'),
  ('AGAGUCGGCGACGCCGCCAGC [hsa-miR-4785]', 'Condition not met'),
  ('CGGCUGGAGGUGUGAGGA [hsa-miR-3652]', 'Condition met'),
  ('ACCCGUCCCGUUCGUCCCCGGA [hsa-miR-1247-5p]', 'Condition not met'),
  ('CUGCCCUGGCCCGAGGGACCGA [hsa-miR-874]', 'Condition not met'),
  ('UUCCCAGCCAACGCACCA [hsa-miR-7977]', 'Condition not met'),
  ('GGGCCUCUCUUGUCAUCCUGCAG [hsa-miR-6744-3p]', 'Condition not met'),
  ('UUGAAGAGGAGGUGCUCUGUAGC [hsa-miR-4709-3p]', 'Condition met'),
  ('UGGCAAACGUGGAAGCCGAGA [hsa-miR-4470]', 'Condition met'),
  ('UGCCUCCUCCGUGGCCUCAG [hsa-miR-6829-3p]', 'Condition met'),
  ('CCCUGAGACCCUAACCUUAA [hsa-miR-4324]', 'Condition not met'),
  ('UAACGCAUAAUAUGGACAUGU [hsa-miR-3912]', 'Condition not met'),
  ('CUGCAGGCAGAAGUGGGGCUGACA [hsa-miR-6511b-5p]', 'Condition met'),
  ('UGUUCAUUGGAACCCUGCGCAG [hsa-miR-6853-3p]', 'Condition not met'),
  ('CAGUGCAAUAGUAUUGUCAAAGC [hsa-miR-301a-3p]', 'Condition not met'),
  ('UCACACCUGCCUCGCCCCCC [hsa-miR-1228-3p]', 'Condition not met'),
  ('CUGGGCUCGGGACGCGCGGCU [hsa-miR-4674]', 'Condition met'),
  ('UGAGGGGUUUGGAAUGGGAUGG [hsa-miR-5194]', 'Condition met'),
  ('AAAAUGGUGCCCUAGUGACUACA [hsa-miR-224-3p]', 'Condition met'),
  ('CACCCGGCUGUGUGCACAUGUGC [hsa-miR-941]', 'Condition not met'),
  ('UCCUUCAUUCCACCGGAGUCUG [hsa-miR-205-5p]', 'Condition not met'),
  ('AAAAGUAAUUGCGGGUUUUGCC [hsa-miR-548as-5p]', 'Condition not met'),
  ('UGUUUUGAUAACAGUAAUGU [hsa-miR-2052]', 'Condition not met'),
  ('AAAAGUAAUUGCGGUUUUUGCC [hsa-miR-548o-5p]', 'Condition not met'),
  ('UUGCAGCUGCGGUUGUAAGGU [hsa-miR-5047]', 'Condition met'),
  ('AAGAGAACUGAAAGUGGAGCCU [hsa-miR-3925-5p]', 'Condition not met'),
  ('GGUUCUUAGCAUAGGAGGUCU [hsa-miR-2116-5p]', 'Condition met'),
  ('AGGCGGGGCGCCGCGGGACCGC [hsa-miR-663a]', 'Condition not met'),
  ('AGGGACUUUCAGGGGCAGCUGU [hsa-miR-365b-5p]', 'Condition met'),
  ('AGGAGGAUGGAGAGCUGGGCCAGA [hsa-miR-6894-5p]', 'Condition met'),
  ('ACCCUUUUUCUCUUUCCCAG [hsa-miR-6832-3p]', 'Condition not met'),
  ('UACCCAGAGCAUGCAGUGUGAA [hsa-miR-1912]', 'Condition met'),
  ('CAAAAACUGCAUUACUUUUGC [hsa-miR-548j-3p]', 'Condition not met'),
  ('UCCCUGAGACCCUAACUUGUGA [hsa-miR-125b-5p]', 'Condition not met'),
  ('AGGAGCUAGCCAGGCAUAUGCA [hsa-miR-4633-3p]', 'Condition met');

====

Tested on: MCF10A
Assay: one-nucleolus phenotype percent effect (relative to siNT 0% and siNOL11 100%); higher = more cells with one nucleolus (ribosome biogenesis inhibition)
Conditions: 20 nM; 72 h
Parameter: one-nucleolus phenotype percent effect. Scope: all listed entries.
REPORTED_ENDPOINT: one-nucleolus phenotype percent effect (%)

INSERT INTO measurements (macromolecule_sequence, experimental_target, val) VALUES
  ('UGGCUUUUAACUUUGAUGGC [hsa-miR-3119]', 'MCF10A', 56.7),
  ('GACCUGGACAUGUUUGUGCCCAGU [hsa-miR-619]', 'MCF10A', -30.8),
  ('UUCACCCCUCUCACCUAAGCAG [hsa-miR-6802-3p]', 'MCF10A', -11.2),
  ('UGAGGCUAAUGCACUACUUCAC [hsa-miR-3975]', 'MCF10A', 38.9),
  ('UUCACAAGGAGGUGUCAUUUAU [hsa-miR-513b]', 'MCF10A', 14.2),
  ('UCUGACAUCAGUGAUUCUCCUG [hsa-miR-6719-3p]', 'MCF10A', -5.44),
  ('UAGGGUAGACACUGACAACGUU [hsa-miR-6755-5p]', 'MCF10A', 25),
  ('ACUGGCAGAACACUGAAGCAGC [hsa-miR-6868-5p]', 'MCF10A', 34.1),
  ('ACCAGCCUGUGUCCACCUCCAG [hsa-miR-6849-3p]', 'MCF10A', 13.6),
  ('ACUUUAACAUGGAAGUGCUUUC [hsa-miR-302b-5p]', 'MCF10A', -20.3),
  ('AAAUUAUUGUACAUCGGAUGAG [hsa-miR-944]', 'MCF10A', 9.85),
  ('AGCAGCAUUGUACAGGGCUAUCA [hsa-miR-107]', 'MCF10A', 29.9),
  ('UCCCCCAGGUGUGAUUCUGAUUU [hsa-miR-361-3p]', 'MCF10A', -5.19),
  ('CAUGGGAGUUCGGGGUGGUUGC [hsa-miR-6871-5p]', 'MCF10A', 14.1),
  ('UGCCUACUGAGCUGAUAUCAGU [hsa-miR-24-1-5p]', 'MCF10A', 3.46),
  ('UGCGACAUUGGAAGUAGUAUCA [hsa-miR-3683]', 'MCF10A', -0.47),
  ('AAAAGUAAUUGCAGUUUUUGC [hsa-miR-548ar-5p]', 'MCF10A', -24.8),
  ('GAGCAGGCGAGGCUGGGCUGAA [hsa-miR-4690-5p]', 'MCF10A', 70.8),
  ('AACUCUGACCCCUUAGGUUGAU [hsa-miR-4714-5p]', 'MCF10A', -5.26),
  ('UGCAAAAGUAAUCACAGUUUUU [hsa-miR-548f-5p]', 'MCF10A', -27.5),
  ('CGCCUCUUCAGCGCUGUCUUCC [hsa-miR-2682-3p]', 'MCF10A', -7.1),
  ('UUGAGGAGACAUGGUGGGGGCC [hsa-miR-4689]', 'MCF10A', 12.3),
  ('UGGCAGUUACUUUUGCACCAG [hsa-miR-548au-3p]', 'MCF10A', 31.4),
  ('GACAAUUGUUGAUCUUGGGCCU [hsa-miR-7849-3p]', 'MCF10A', 8.55),
  ('CACACAAGUGGCCCCCAACACU [hsa-miR-4731-3p]', 'MCF10A', 8.2),
  ('UAGAGAGGGGAAGGAUGUGAUGU [hsa-miR-6758-5p]', 'MCF10A', 12.9),
  ('GCCGGGGCUUUGGGUGAGGG [hsa-miR-6784-5p]', 'MCF10A', -23.3),
  ('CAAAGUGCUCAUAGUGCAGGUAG [hsa-miR-20b-5p]', 'MCF10A', -12),
  ('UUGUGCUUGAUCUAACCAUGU [hsa-miR-218-5p]', 'MCF10A', -8.63),
  ('UCGUAUCAGAGAUUCCAGACAC [hsa-miR-6506-3p]', 'MCF10A', 5.43),
  ('UGCAUCACAGCCUUUGGCCCUAG [hsa-miR-7112-3p]', 'MCF10A', -28),
  ('GCAGAUCAGGACUGUAACUCACC [hsa-miR-1288-5p]', 'MCF10A', -14.5),
  ('UCACAGUGGUCUCUGGGAUUAU [hsa-miR-216a-3p]', 'MCF10A', 8.32),
  ('AGGGAAAAAAAAAAGGAUUUGUC [hsa-miR-4668-5p]', 'MCF10A', -20.9),
  ('UAGGGGGCGGCUUGUGGAGUGU [hsa-miR-6805-5p]', 'MCF10A', 18.2),
  ('UCACAGUGAACCGGUCUCUUU [hsa-miR-128]', 'MCF10A', 12.2),
  ('CCUGCAGAGAGGAAGCCCUUC [hsa-miR-3158-5p]', 'MCF10A', 26.4),
  ('CAGUGCAAUGUUUUCCUU [hsa-miR-4295]', 'MCF10A', -33),
  ('AAGCAAUACUGUUACCUGAAAU [hsa-miR-3942-5p]', 'MCF10A', -6.02),
  ('GGGAGAAGGGUCGGGGC [hsa-miR-4516]', 'MCF10A', -25.4),
  ('UGGAUUUUUGGAUCAGGGA [hsa-miR-1290]', 'MCF10A', 7),
  ('CAGGCAGGGAGGUGGGACCAUG [hsa-miR-6808-5p]', 'MCF10A', 28.6),
  ('CAGCAGGAGGUGAGGGGAG [hsa-miR-6165]', 'MCF10A', -18.4),
  ('ACCAGCGCGUUUUCAGUUUCAU [hsa-miR-4738-5p]', 'MCF10A', 7.61),
  ('CAUACAAUCUGACAUGUAUUU [hsa-miR-4666a-3p]', 'MCF10A', -4.04),
  ('CUGGAGUCUAGGAUUCCA [hsa-miR-4309]', 'MCF10A', 33.6),
  ('GCUACUUCACAACACCAGGGCC [hsa-miR-138-1-3p]', 'MCF10A', -15.7),
  ('ACGGGGAGUCAGGCAGUGGUGGA [hsa-miR-6777-5p]', 'MCF10A', 32);
